Consider the following MIC values measured on T. rubrum ATCC10218.
Parameter Measured: MIC

[[record]]
chemical_string = "Cc1cc(C)n(-c2cc(Cl)ccc2O)n1"
result = "32 to 64 µg/mL"

[[record]]
chemical_string = "CNc1ccc(-n2nc(C)cc2C)c(O)c1"
result = "4 to 16 µg/mL"

[[record]]
chemical_string = "Cc1nn(-c2cc(O)ccc2O)c(C)c1Cl"
result = "16 to 32 µg/mL"

[[record]]
chemical_string = "COc1ccc(-n2nc(C)cc2C)c(O)c1"
result = "≤ 2 µg/mL"


====

Consider the following MIC values measured on T. rubrum ATCC10218.
Parameter Measured: MIC

[[record]]
chemical_string = "CCc1cc(CC)n(-c2ccccc2O)n1"
parameter_measured = "MIC"
result = "4 to 16 µg/mL"

[[record]]
chemical_string = "Cc1cc(C)n(-c2ccc(F)cc2O)n1"
parameter_measured = "MIC"
result = "4 to 16 µg/mL"

[[record]]
chemical_string = "Cc1nn(-c2ccc(Cl)cc2O)c(C)c1C"
parameter_measured = "MIC"
result = "≤ 2 µg/mL"

[[record]]
chemical_string = "Cc1ccn(-c2ccccc2O)n1"
parameter_measured = "MIC"
result = "> 64 µg/mL"

[[record]]
chemical_string = "Cc1nn(-c2ccc(O)cc2O)c(C)c1Cl"
parameter_measured = "MIC"
result = "≤ 2 µg/mL"

[[record]]
chemical_string = "Cc1cc(C)n(-c2ccc(C(=O)O)cc2O)n1"
parameter_measured = "MIC"
result = "4 to 16 µg/mL"

[[record]]
chemical_string = "CCCCc1c(C)nn(-c2ccccc2O)c1C"
parameter_measured = "MIC"
result = "16 to 32 µg/mL"

[[record]]
chemical_string = "Cc1nn(-c2ccc([N+](=O)[O-])cc2O)c(C)c1C"
parameter_measured = "MIC"
result = "4 to 16 µg/mL"

[[record]]
chemical_string = "Cc1cc(C)n(-c2cccc(Cl)c2O)n1"
parameter_measured = "MIC"
result = "> 64 µg/mL"

[[record]]
chemical_string = "Cc1cc(C(F)(F)F)nn1-c1ccccc1O"
parameter_measured = "MIC"
result = "32 to 64 µg/mL"

